# Tested on: MCF7 breast
# MEASUREMENT_PROTOCOL: NCI-60 one-dose screen, 48 h
# ASSAY_CONTEXT: 10 µM unless noted
This is part of a sample that, as a whole, favours compounds with a hit. Of some 83,000 tested, about 20% had one in any assay. Active and inactive are the calls of the source. How the source made its calls: active means growth percent below 10; inactive means the rest.
Classes to choose from: active, inactive

MOLECULE: c1ccc(-c2n(Cc3ccc4ccccc4n3)c3ccccc3[n+]2Cc2ccc3ccccc3n2)cc1
ASSIGNED_CATEGORY: active
--
MOLECULE: COc1cccc(C2CC(=O)Nc3cc4c(cc32)CCC4)c1OC (centres undefined)
ASSIGNED_CATEGORY: inactive
--
MOLECULE: COc1ccc(OC2=C(C#N)C(=N)N3c4ccccc4Sc4ccccc4C3N2)cc1 (centres undefined)
ASSIGNED_CATEGORY: inactive
--
MOLECULE: O=C1/C(=C/c2ccc(F)cc2)CN(Cc2cn(CCNc3ccnc4cc(Cl)ccc34)nn2)C/C1=C\c1ccc(F)cc1
ASSIGNED_CATEGORY: active
--
MOLECULE: COc1ccc(CSc2nc3cc(OC)c(OC)cc3c(=O)n2-c2ccc(Cl)cc2)cc1
ASSIGNED_CATEGORY: inactive

GET /call?item= Cc1nc2cc(Nc3nc(Nc4ccc(F)cc4)nc(N4CCN(C)CC4)n3)ccc2n1Cc1ccccc1 returns the recorded outcome of this test.
inactive

GET /call?item= COc1ccccc1-n1c(SCc2cc(OC)c(OC)c(OC)c2)nc2ccc(Cl)cc2c1=O returns the recorded outcome of this test.
inactive

GET /call?item= O=C1/C(=C/c2ccc(Cl)cc2)CN(Cc2cn(CCCNc3ccnc4cc(Cl)ccc34)nn2)C/C1=C\c1ccc(Cl)cc1 returns the recorded outcome of this test.
active

GET /call?item= Cc1nc2cc(Nc3nc(Nc4ccc(F)cc4)nc(-c4cccs4)n3)ccc2n1Cc1ccccc1 returns the recorded outcome of this test.
inactive
